# credit: PubChem BioAssay (NCI)

Assay: NCI Yeast Anticancer Drug Screen. Data for the rad50 strain (AID 155)
Settings: S. cerevisiae rad50 strain growth inhibition; at 50.0 µM; active compounds read high
The panel holds about 79,000 compounds, 15% with a hit somewhere; the sample as a whole holds those more often.
Please use met whenever growth inhibition is not below -10%, and not met whenever it is.

Reference set (5 entries):
# COMPOUND, CLASS ASSIGNMENT
records = [
    ("CCOC(=O)C(CCSC)(CCSC)C(=O)OCC", "not met"),
    ("Cc1c(C(=O)Nc2ccc(Cl)cc2)nc(N)nc1-c1cccc(Cl)c1", "not met"),
    ("Cc1ncc([N+](=O)[O-])n1CCNC(=O)CCn1ccnc1[N+](=O)[O-]", "met"),
    ("O=c1oc2ccccc2cc1S(=O)(=O)c1ccc(Cl)cc1", "met"),
    ("CCOC(=Nc1cccc2ccccc12)Nc1cccc2ccccc12", "met"),
]

growth inhibition >= -10% for CC1CC(=O)N2CCCNC2=C1C#N (stereo unspecified) ?
met

growth inhibition >= -10% for CCC(=O)c1c2c(cc3ccccc13)CCCC2 ?
met

growth inhibition >= -10% for O=[N+]([O-])c1ccc(N/N=C/C(Br)(Br)Br)c([N+](=O)[O-])c1 ?
met

growth inhibition >= -10% for O=C1CCCCCCCCCCC1Sc1ccccc1 (stereo unspecified) ?
not met

growth inhibition >= -10% for Cc1ccc(OC(=O)Nc2ccc(C(=O)O)c(O)c2)cc1 ?
not met

growth inhibition >= -10% for C[N+](C)(C)C12CCC(CC1)C1([N+](C)(C)C)CCC2CC1 ?
met

growth inhibition >= -10% for O=S(=O)(CC1=NC2C=CC=CC2N=C1)NCc1ccccc1 (stereo unspecified) ?
met
